# maps each entry to its TARC (pg/mL), A549 cells + IL-13 5 ng/mL + TNFα; antibody at 0.001 nM
Target: his-labeled human IL-13 (immunogen A) (human) (UniProt P35225)
Assay: cell-based or functional assay
Observed Property: TARC (pg/mL), A549 cells + IL-13 5 ng/mL + TNFα; antibody at 0.001 nM

# Binder, Unit, Observed Measurement
measured = [
    ("29D9H8 (lead antibody, mouse hybridoma) (antibody, V domains shown, Mouse monoclonal antibody purified from hybridoma supernatant on Protein G) VH: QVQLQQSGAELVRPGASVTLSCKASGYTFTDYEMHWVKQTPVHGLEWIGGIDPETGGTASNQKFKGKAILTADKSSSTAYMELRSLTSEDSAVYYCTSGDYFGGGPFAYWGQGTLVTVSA VL: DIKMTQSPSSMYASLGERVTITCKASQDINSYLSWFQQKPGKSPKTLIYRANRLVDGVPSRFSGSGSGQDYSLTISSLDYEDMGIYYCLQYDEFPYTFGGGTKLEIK", "pg/mL", 1910),
    ("35E2C3 (lead antibody, mouse hybridoma) (antibody, V domains shown, Mouse monoclonal antibody purified from hybridoma supernatant on Protein G) VH: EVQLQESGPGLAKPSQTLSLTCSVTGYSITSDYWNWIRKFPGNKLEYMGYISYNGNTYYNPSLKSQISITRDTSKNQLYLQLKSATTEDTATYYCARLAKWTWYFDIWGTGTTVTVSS VL: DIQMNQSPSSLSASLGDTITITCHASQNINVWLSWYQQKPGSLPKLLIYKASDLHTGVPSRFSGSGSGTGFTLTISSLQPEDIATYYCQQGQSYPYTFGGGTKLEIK", "pg/mL", 1730),
    ("70F10A10 (lead antibody, mouse hybridoma) (antibody, V domains shown) VH: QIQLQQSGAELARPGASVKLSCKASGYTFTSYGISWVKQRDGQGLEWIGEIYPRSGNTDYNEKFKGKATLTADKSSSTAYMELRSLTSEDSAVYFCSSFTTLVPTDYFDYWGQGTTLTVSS VL: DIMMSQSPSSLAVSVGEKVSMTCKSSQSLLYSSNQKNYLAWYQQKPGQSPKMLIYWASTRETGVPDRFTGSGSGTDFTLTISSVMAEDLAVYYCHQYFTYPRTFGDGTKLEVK", "pg/mL", 2000),
    ("28A2E11 (lead antibody, mouse hybridoma) (antibody, V domains shown, Mouse monoclonal antibody purified from hybridoma supernatant on Protein G) VH: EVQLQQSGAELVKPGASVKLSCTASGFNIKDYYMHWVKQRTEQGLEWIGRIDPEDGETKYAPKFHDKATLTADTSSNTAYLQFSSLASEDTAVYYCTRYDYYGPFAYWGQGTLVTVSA VL: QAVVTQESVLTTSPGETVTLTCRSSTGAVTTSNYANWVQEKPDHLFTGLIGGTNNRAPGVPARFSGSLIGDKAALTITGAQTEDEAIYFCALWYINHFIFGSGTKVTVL", "pg/mL", 1850),
]
